- SYSTEM: Androgen Receptor (AR) (Homo sapiens, UniProt P10275)
- Construct: endogenous in cells; host or cells: VCaP
- Sequence (P10275 whole entry): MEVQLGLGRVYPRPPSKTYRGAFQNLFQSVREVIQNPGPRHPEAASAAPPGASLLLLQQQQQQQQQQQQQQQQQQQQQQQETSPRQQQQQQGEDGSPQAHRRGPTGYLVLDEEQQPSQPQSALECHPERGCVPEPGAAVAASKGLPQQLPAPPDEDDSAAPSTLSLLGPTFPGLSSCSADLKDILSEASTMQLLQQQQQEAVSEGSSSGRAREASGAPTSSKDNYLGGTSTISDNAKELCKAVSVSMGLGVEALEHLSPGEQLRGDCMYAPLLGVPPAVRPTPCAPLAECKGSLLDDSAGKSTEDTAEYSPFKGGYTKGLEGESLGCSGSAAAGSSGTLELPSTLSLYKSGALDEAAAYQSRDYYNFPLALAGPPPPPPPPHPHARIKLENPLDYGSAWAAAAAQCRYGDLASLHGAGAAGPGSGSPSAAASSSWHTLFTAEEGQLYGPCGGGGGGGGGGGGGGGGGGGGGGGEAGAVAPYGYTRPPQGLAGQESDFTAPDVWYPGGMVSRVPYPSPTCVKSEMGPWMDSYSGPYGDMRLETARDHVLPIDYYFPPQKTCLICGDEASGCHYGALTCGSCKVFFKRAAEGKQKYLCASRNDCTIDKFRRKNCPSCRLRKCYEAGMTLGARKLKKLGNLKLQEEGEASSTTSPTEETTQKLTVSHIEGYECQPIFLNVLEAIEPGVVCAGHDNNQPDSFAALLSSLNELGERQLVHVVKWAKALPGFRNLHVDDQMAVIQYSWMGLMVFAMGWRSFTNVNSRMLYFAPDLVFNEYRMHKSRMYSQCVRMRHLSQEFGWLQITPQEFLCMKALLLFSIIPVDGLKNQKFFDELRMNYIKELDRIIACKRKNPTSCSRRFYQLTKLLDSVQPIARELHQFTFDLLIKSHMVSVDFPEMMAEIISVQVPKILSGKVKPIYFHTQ
- ASSAY_NOTES: AR immunofluorescence staining, high content imager, VCaP cells
- Format: cell-based
- MEASUREMENT_CONTEXT: AR degradation by immunofluorescence
OBSERVED_PROPERTY: DC50

Example cases with answers are listed next.
MOLECULE: COc1cc(O[C@H]2C(C)(C)[C@H](NC(=O)c3ccc(N4CCO[C@@H](CN5CCN(c6ccc(C(=O)NC7CCC(=O)NC7=O)cc6OC)CC5)C4)cc3)C2(C)C)ccc1C#N (some centres unmarked) [Compound 57]
DC50: < 1 nM
//
MOLECULE: Cc1cc(O[C@H]2C(C)(C)[C@H](NC(=O)c3ccc(N4CCC(O[C@H]5C[C@H](Oc6ccc(C(=O)N[C@H]7CCC(=O)NC7=O)c(F)c6)C5)CC4)cc3)C2(C)C)cc(C)c1C#N [Compound 73]
DC50: 1 to 10 nM
//
MOLECULE: COc1cc(O[C@H]2C(C)(C)[C@H](NC(=O)c3ccc(N4CCC(CN5CCN(c6cnc(C(=O)N[C@H]7CCC(=O)NC7=O)cn6)CC5)CC4)cc3)C2(C)C)ccc1C#N [Compound 37]
DC50: < 1 nM

// lookup DC50 for COc1cc(C(=O)NC2CCC(=O)NC2=O)ccc1N1CCN(C[C@H]2CN(c3ccc(C(=O)N[C@H]4C(C)(C)[C@H](Oc5cc(C)c(C#N)c(C)c5)C4(C)C)cc3)CCO2)CC1 (some centres unmarked) [Compound 56] < 1 nM

Name the recorded DC50 for COc1cc(O[C@H]2C(C)(C)[C@H](NC(=O)c3ccc(N4CCC(CN5CCN(c6ccc(C(=O)N[C@H]7CCC(=O)NC7=O)cn6)CC5)CC4)cc3)C2(C)C)ccc1C#N [Compound 42] . < 1 nM
